Could you please report measured IC50 for the items listed next?
# System: PC-3
# testProtocol: Antiproliferative activity against human PC3 cells after 48 hrs by resazurin reduction test
# conditionParameters: PC-3, 48 h

Sample records with IC50:
mol | IC50
Nc1ncc(I)c(-c2c[nH]c3ccc(Br)cc23)n1 | > 10 µM
COc1cccc(-c2cnc(N)nc2-c2c[nH]c3cc(Br)ccc23)c1 | > 10 µM

Q: Specify measured IC50 for Nc1ncc(I)c(-c2c[nH]c3cccc(Br)c23)n1 .
Result: > 10 µM

----------
# System: PC-3
# testProtocol: Antiproliferative activity against human PC3 cells after 48 hrs by resazurin reduction test
# conditionParameters: PC-3, 48 h
pIC50: −log10 of the molar value.
pIC50 of 5 or higher: Fulfilled. Under 5: Not fulfilled.

Reference set, count: 5
mol | systemTested | class
CC(=O)c1ccc(-c2cnc(N)nc2-c2c[nH]c3ccc(Br)cc23)cc1 | PC-3 | Not fulfilled
CC(=O)Nc1ccc(-c2cnc(N)nc2-c2c[nH]c3cccc(Br)c23)cc1 | PC-3 | Not fulfilled
Nc1ncc(I)c(-c2c[nH]c3cccc([N+](=O)[O-])c23)n1 | PC-3 | Fulfilled
Nc1ncc(I)c(-c2c[nH]c3c(N)cccc23)n1 | PC-3 | Not fulfilled
CC(=O)Nc1ccc(-c2cnc(N)nc2-c2c[nH]c3ccc(Br)cc23)cc1 | PC-3 | Not fulfilled

Q: Check this compound for pIC50 at or above 5: CC(=O)c1ccc(-c2cnc(N)nc2-c2c[nH]c3cc(Br)ccc23)cc1
Result: Fulfilled

Q: Check this compound for pIC50 at or above 5: Nc1ncc(-c2ccc(C(F)(F)F)cc2)c(-c2c[nH]c3cccc(Br)c23)n1
Result: Not fulfilled

Q: Check this compound for pIC50 at or above 5: COc1cccc(-c2cnc(N)nc2-c2c[nH]c3c(Br)cccc23)c1
Result: Not fulfilled

Q: Check this compound for pIC50 at or above 5: Nc1ncc(I)c(-c2c[nH]c3cc(Br)ccc23)n1
Result: Fulfilled

Q: Check this compound for pIC50 at or above 5: CC(=O)c1ccc(-c2cnc(N)nc2-c2c[nH]c3cccc(Br)c23)cc1
Result: Not fulfilled

Q: Check this compound for pIC50 at or above 5: Nc1ncc(I)c(-c2c[nH]c3ccc([N+](=O)[O-])cc23)n1
Result: Not fulfilled

Q: Check this compound for pIC50 at or above 5: Nc1ncc(I)c(-c2c[nH]c3cccc(N)c23)n1
Result: Not fulfilled

Q: Check this compound for pIC50 at or above 5: COc1cccc(-c2cnc(N)nc2-c2c[nH]c3ccc(Br)cc23)c1
Result: Not fulfilled

Q: Check this compound for pIC50 at or above 5: COc1cccc(-c2cnc(N)nc2-c2c[nH]c3cccc(Br)c23)c1
Result: Not fulfilled

Q: Check this compound for pIC50 at or above 5: Nc1ccc2c(-c3nc(N)ncc3I)c[nH]c2c1
Result: Not fulfilled

Q: Check this compound for pIC50 at or above 5: Nc1ncc(-c2ccc(C(F)(F)F)cc2)c(-c2c[nH]c3ccc(Br)cc23)n1
Result: Not fulfilled

Q: Check this compound for pIC50 at or above 5: CC(=O)c1ccc(-c2cnc(N)nc2-c2c[nH]c3c(Br)cccc23)cc1
Result: Fulfilled

Q: Check this compound for pIC50 at or above 5: Nc1ncc(-c2ccc(C(F)(F)F)cc2)c(-c2c[nH]c3cc(Br)ccc23)n1
Result: Not fulfilled

Q: Check this compound for pIC50 at or above 5: Nc1ncc(I)c(-c2c[nH]c3c(Br)cccc23)n1
Result: Not fulfilled

Q: Check this compound for pIC50 at or above 5: Nc1ccc2[nH]cc(-c3nc(N)ncc3I)c2c1
Result: Not fulfilled
